measured.target: Thyrotropin receptor (Homo sapiens) (UniProt P16473)
Sequence (P16473 whole entry, looked up): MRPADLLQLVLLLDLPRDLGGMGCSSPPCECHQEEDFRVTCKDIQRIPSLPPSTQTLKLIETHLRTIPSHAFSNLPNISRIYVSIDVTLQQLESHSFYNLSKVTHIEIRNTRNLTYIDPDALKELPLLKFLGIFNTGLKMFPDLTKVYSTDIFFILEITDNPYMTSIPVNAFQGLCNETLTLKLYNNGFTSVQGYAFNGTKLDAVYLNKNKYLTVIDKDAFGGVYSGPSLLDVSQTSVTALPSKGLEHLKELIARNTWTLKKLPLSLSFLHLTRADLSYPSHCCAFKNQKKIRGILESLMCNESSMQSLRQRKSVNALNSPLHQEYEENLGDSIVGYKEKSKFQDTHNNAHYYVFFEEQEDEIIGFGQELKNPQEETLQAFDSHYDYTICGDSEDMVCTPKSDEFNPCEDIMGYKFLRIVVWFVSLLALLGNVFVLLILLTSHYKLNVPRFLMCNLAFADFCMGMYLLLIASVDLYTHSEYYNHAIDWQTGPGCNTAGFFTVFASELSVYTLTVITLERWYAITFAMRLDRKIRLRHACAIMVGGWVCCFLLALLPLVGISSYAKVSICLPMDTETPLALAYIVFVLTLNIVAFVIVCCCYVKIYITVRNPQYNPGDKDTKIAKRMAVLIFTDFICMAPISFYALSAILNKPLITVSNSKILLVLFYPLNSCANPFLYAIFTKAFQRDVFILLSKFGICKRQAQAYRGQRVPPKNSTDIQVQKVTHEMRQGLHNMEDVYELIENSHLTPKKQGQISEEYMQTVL
experiment.notes: Concentration-response assay for antagonists of the thyroid stimulating hormone receptor: ELISA activity detection
assay.context: HEK293-TSHR, TSH-induced cAMP, ELISA chemiluminescence
Activity calls are given as the source filed them. No rule for the calls is given here.
readout: IC50

Observe how each entry below is paired with its result.
Cc1cccc(C)c1OCc1cccc(C2Nc3ccccc3C(=O)N2Cc2ccco2)c1 (stereo not given) ... 1.9 µM (active)
COc1ccc(C2Nc3ccccc3C(=O)N2Cc2ccco2)cc1CSc1c(C)cccc1C (stereo not given) ... 9.9 µM (active)
COc1ccc(C2Nc3ccccc3C(=O)N2Cc2cccnc2)cc1COc1c(C)cccc1C (stereo not given) ... 3.5 µM (active)
COc1ccc(C2Nc3ccccc3C(=O)N2Cc2ccccc2)cc1COc1c(C)cccc1C (stereo not given) ... inactive

# next compound below
Qu. Report IC50 for COc1ccc(C2Nc3ccccc3C(=O)N2Cc2ccco2)cc1COc1ccccc1C (stereo not given) please.
Ans. inactive
